Taken from patent US20240041042A1.

tested on: Triticum aestivum (TRZAS); type: in vivo; conditions: pre-emergence, 80 g/ha, crop plant compatibility, in comparison to untreated controls
Result type: Pre-emergence action against TRZAS in % (%)

Examples with answers:
CCOC(=O)CSc1nn(-c2ccccn2)c(-c2cncc(F)c2)c1Cl [Example I-183] :: 0
CCOC(=O)COc1nn(-c2ccccn2)c(-c2cncc(F)c2)c1Cl [Example I-147] :: 0
O=C(COc1nn(-c2ccccn2)c(-c2ccc(F)nc2)c1Cl)NS(=O)(=O)CC(F)(F)F [Example I-119] :: 20
O=C(COc1nn(-c2ccccn2)c(-c2ccc(F)nc2)c1Br)NS(=O)(=O)CC(F)(F)F [Example I-60] :: 0
COC(=O)[C@@H](C)Oc1nn(-c2ncccc2F)c(-c2cccnc2)c1Br [Example I-03] :: 10

a: COC(=O)C=CC(C)NC(=O)COc1nn(-c2ccccn2)c(-c2ccc(F)nc2)c1Br (centres unmarked) [Example I-345]
b: CCOC(=O)COc1nn(-c2ncccc2F)c(-c2ccc(F)nc2)c1I [Example I-55]
c: COC(=O)CCOC(=O)COc1nn(-c2ccnc(Cl)c2)c(-c2ccc(F)nc2)c1Br [III-19]
Task for the reader: rank each entry by its Pre-emergence action against TRZAS in %, from the minimum upward. Provide the labels, sequenced as the question asks.
b, a, c
(b: 0%, a: 10%, c: 20%)

---

test system: Oryza sativa (ORYSA); format: in vivo; settings: crop plant compatibility, 320 g/ha, effect in comparison to untreated controls
Result type: Post-emergence action against ORYSA in % (%)

CCOC(=O)C[S+]([O-])c1nn(-c2ccccn2)c(-c2cncc(F)c2)c1Cl (centres unmarked) :: 0
O=C(O)CNC(=O)COc1nn(-c2ccnc(F)c2)c(-c2ccc(F)nc2)c1Br :: 20
C[C@H](NC(=O)COc1nn(-c2ccccn2)c(-c2cncc(F)c2)c1Br)C(=O)O :: 20
C[C@H](NC(=O)COc1nn(-c2ccnc(F)c2)c(-c2ccc(F)nc2)c1Br)C(=O)O :: 0
COC(=O)CCOC(=O)COc1nn(-c2cccc(C)n2)c(-c2ccc(F)nc2)c1Br :: 10

I: CC(=O)CNC(=O)COc1nn(-c2ccnc(F)c2)c(-c2ccc(F)nc2)c1Br
II: CCOC(=O)COc1nn(-c2ncccc2F)c(-c2ccnc(F)c2)c1I
Exercise: compare I and II ; which one has the greater Post-emergence action against ORYSA in %? Answer by stating the label of the chosen item.
II

---

System: Matricaria inodora (MATIN)
Test: Pre-emergence herbicidal action against MATIN
Type: in vivo
Details: dosage 320 g/ha
From the text: Seeds of monocotyledonous and dicotyledonous weed plants and crop plants are placed in plastic or organic planting pots and covered with soil. […] After about 3 weeks, the effect of the preparations is scored visually in comparison with untreated controls as percentages. […]
Result type: Pre-emergence action against MATIN in % (%)
Answer with a number only, understood to be in %.

Past entries and their recorded results:
CCOC(=O)[C@@H](C)Oc1nn(-c2ncccc2Cl)c(-c2ccc(F)nc2)c1Br :: 80
CCOC(=O)COc1nn(-c2ncccc2F)c(-c2ccc(F)nc2)c1Br [Example I-39] :: 100

Quick one: Pre-emergence action against MATIN in % for CCOC(=O)[C@@H](C)Oc1nn(-c2ncccc2F)c(-c2ccc(F)nc2)c1C(F)(F)F ?
100
